system: PC-3; details: human, 4 h
Quantity measured: CC50
Write the numeric value and follow it with the unit.

# return recorded CC50 for entry CC1(C)CCC2=C(O1)c1ccccc1C(=O)C2=O [β-lapachone]
2340 nM

###

experiment: Pharmacokinetic data from toxicology study in dogs, one-hour intravenous infusion; assay type: in vivo; conditions: both sexes, dog, plasma, iv; 5 mg/kg, 60 min infusion; read-out: T1/2
Quantity measured: half-life

For the compound CC1(C)CCC2=C(O1)c1ccccc1C(=O)C2=O [β-lapachone] , give its reported half-life.
~16 h

###

test: Pharmacokinetics after intravenous infusion in rats, HPBCD formulation; conditions: male, Sprague-Dawley, rat, plasma, iv, 10 mg/kg, Cmax, 1-Hour Infusion
Quantity measured: Cmax (ng/mL)
Field: numeric (ng/mL). Do not append units.

Please report the measured Cmax for CC1(C)CCC2=C(O1)c1ccccc1C(=O)C2=O
707

###

experiment: Pharmacokinetics after intravenous infusion in rats, HPBCD formulation; settings: male, Sprague-Dawley, rat, plasma, iv, 10 mg/kg, AUC, 1-Hour Infusion
Quantity measured: AUC

Consider the compound CC1(C)CCC2=C(O1)c1ccccc1C(=O)C2=O and give its recorded AUC.
2.65 µg·h/mL

###

test: Pharmacokinetics after intravenous infusion in rats, HPBCD formulation; conditions: male, Sprague-Dawley, rat, plasma, iv, 5 mg/kg, Cmax, 10-Min. Infusion
Quantity measured: Cmax (ng/mL)
Give the value, in units of ng/mL, as a plain number.

Note down Cmax recorded for CC1(C)CCC2=C(O1)c1ccccc1C(=O)C2=O
834

###

assay: Pharmacokinetics after intravenous infusion in rats, HPBCD formulation; details: male, Sprague-Dawley, rat, plasma, iv, 5 mg/kg, T1/2, 10-Min. Infusion
Quantity measured: half-life (h)
Give the number; h is assumed, so skip it.

Fill in half-life for record CC1(C)CCC2=C(O1)c1ccccc1C(=O)C2=O
3.6

###

system: MCF-7; details: human, 4 h
Quantity measured: CC50 (µM)
Express your answer in µM, writing the number without its unit.

# return CC50 for CC1(C)CCC2=C(O1)c1ccccc1C(=O)C2=O , test system: MCF-7
1.56

###

assay: in vivo; details: Sprague-Dawley, rat, 10 mg/kg, AUC* (estimated from toxicology experiments)
Quantity measured: AUC (ng·h/mL)
Express the result in ng·h/mL but write the number alone.

Kindly indicate its recorded AUC. Item: CC1(C)CCC2=C(O1)c1ccccc1C(=O)C2=O
2640

###

test: Pharmacokinetics after intravenous infusion in rats, HPBCD formulation; conditions: male, Sprague-Dawley, rat, plasma, iv, 5 mg/kg, Cmax, 1-Hour Infusion
Quantity measured: Cmax (ng/mL)
Please respond with the number in ng/mL and leave the unit unwritten.

Read off the recorded Cmax for CC1(C)CCC2=C(O1)c1ccccc1C(=O)C2=O
363

###

test: Pharmacokinetics after intravenous infusion in rats, HPBCD formulation; details: male, Sprague-Dawley, rat, plasma, iv, volume of distribution, intravenous infusion
Quantity measured: Vd

Provide only the value of recorded Vd for CC1(C)CCC2=C(O1)c1ccccc1C(=O)C2=O
20 to 26 L/kg

###

assay: Pharmacokinetics after intravenous infusion in rats, HPBCD formulation; settings: male, Sprague-Dawley, rat, plasma, iv, 15 mg/kg, AUC, 1-Hour Infusion
Quantity measured: AUC (ng·h/mL)
Reply with just the number (in ng·h/mL).

Give recorded AUC. CC1(C)CCC2=C(O1)c1ccccc1C(=O)C2=O
4900
